Recorded normalized growth, one value per entry.
Experiment: chemical genetic growth profiling, strain panel (AID 1159580);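 further: tested at 20 µM; growth read once vehicle control cultures reached saturation at 30 °C; 1 = growth at the plate median or of vehicle wells; lower values mean less growth of the strain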
Conditions: S. cerevisiae deletion strains, growth OD, strain wtn01, stronger effect = lower value
The whole screen tested about 5,500 compounds, of which about 2,000 (36%) were called active. Inconclusive results (about 18%) are left out. Some of the results follow.

Record excerpt, results attached:
- compound: "NC(=O)c1ncn([C@@H]2O[C@H](CO)[C@@H](O)[C@H]2O)n1"
  property_measured: "normalized growth"
  data_value: "0.983 (inactive)"
- compound: "C[N+](C)(C)CC(O)CC(=O)O (stereo unspecified)"
  property_measured: "normalized growth"
  data_value: "0.989 (inactive)"
- compound: "CCCCOc1cc(C(=O)NCCN(CC)CC)c2ccccc2n1"
  property_measured: "normalized growth"
  data_value: "1.02 (inactive)"
- compound: "CC1(C)C=CC(=O)[C@@]2(C)C1CC(=O)[C@]1(C)C2CC[C@@]2(C)[C@H](c3ccoc3)OC(=O)C3OC321 (stereo partly specified)"
  property_measured: "normalized growth"
  data_value: "0.936 (inactive)"
- compound: "C[C@]12CCC3c4ccc(O)cc4CCC3C1CC[C@@H]2O (stereo partly specified)"
  property_measured: "normalized growth"
  data_value: "0.92 (inactive)"

Fill in the blank: the reported normalized growth of CC(C)(C)NCC(O)c1cc(O)cc(O)c1 (stereo unspecified) is ____. 0.99 (inactive)

Fill in the blank: the reported normalized growth of NC(=O)NCC(N)C(=O)O (stereo unspecified) is ____. 0.989 (inactive)

Fill in the blank: the reported normalized growth of O=c1cc(-c2ccc(O)cc2)oc2cc(O[C@@H]3O[C@H](CO)[C@@H](O)[C@H](O)[C@H]3O)cc(O)c12 is ____. 0.955 (inactive)

---

Assay: chemical genetic growth profiling, strain panel (AID 1159580);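 further: tested at 20 µM; growth read once vehicle control cultures reached saturation at 30 °C; 1 = growth at the plate median or of vehicle wells; lower values mean less growth of the strain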
Details: S. cerevisiae deletion strains, growth OD, locus YJL187C, strain SWE1 (second series), stronger effect = lower value
The campaign covered roughly 5,500 compounds. About 2,000 (36%) were called active. Inconclusive results (about 18%) are left out. The list shows a part of the results.
property_measured: normalized growth
Lab note: write the figure by itself, no unit.

Record excerpt, results attached:
- compound: "O=c1c(O)c(-c2ccc(O)cc2O)oc2cc(O)cc(O)c12"
  property_measured: "normalized growth"
  data_value: 0.966
- compound: "CC(C)c1c(O)ccc2c1CCC1[C@@](C)(CO)CCC[C@]21C (stereo partly drawn)"
  property_measured: "normalized growth"
  data_value: 0.918
- compound: "COC(=O)[C@]1(C)CCC[C@]2(C)c3ccc(C(C)C)cc3C(=O)CC12 (stereo partly drawn)"
  property_measured: "normalized growth"
  data_value: 0.98
- compound: "CC1(C)C(=O)C=C[C@@]2(C)C1CC(=O)[C@]1(C)C2CC[C@@]2(C)[C@H](c3ccoc3)OC(=O)[C@H]3O[C@]321 (stereo partly drawn)"
  property_measured: "normalized growth"
  data_value: 1.02
- compound: "CCC(=O)c1c(O)cc(O)cc1O"
  property_measured: "normalized growth"
  data_value: 1.01
- compound: "CCc1cc(C(N)=S)ccn1"
  property_measured: "normalized growth"
  data_value: 0.941
- compound: "COC(=O)C1OC(=O)C2OC23C1(C)CCC1C2(C)C(OC(C)=O)CC(OC(C)=O)C(C)(C)C2CC(=O)C13C (stereo not drawn)"
  property_measured: "normalized growth"
  data_value: 0.996
- compound: "CCCCCCCCCCCC1=C(O)C(=O)C=C(O)C1=O"
  property_measured: "normalized growth"
  data_value: 0.981

Fill in the blank: the reported normalized growth of COc1ccc2ccc(=O)oc2c1 is ____. 1.02

Fill in the blank: the reported normalized growth of CCN1C[C@]2(C)CC[C@H](OC)[C@]34C2[C@H](O)[C@]2(OCO[C@@]25C[C@H](OC)[C@H]2C[C@]3(O)C5[C@H]2O)C14 is ____. 1.01

Fill in the blank: the reported normalized growth of CCCC(C)(COC(N)=O)COC(=O)NC(C)C (stereo not drawn) is ____. 0.987

Fill in the blank: the reported normalized growth of CCCCCc1c2c(cc(O)c1C(=O)O)OC(=O)c1c(cc(OC)cc1C(=O)CCCC)O2 is ____. 1.01

Fill in the blank: the reported normalized growth of COc1ccc2c3c1OC1C(O)CC=C4C(C2)N(C)CCC431 (stereo not drawn) is ____. 1.02

Fill in the blank: the reported normalized growth of CC1(C)C(=O)C=C[C@@]2(C)C1C[C@@H](O)[C@]1(C)C2CC[C@@]2(C)[C@H](c3ccoc3)OC(=O)[C@H]3O[C@]321 (stereo partly drawn) is ____. 1

Fill in the blank: the reported normalized growth of CO[C@@]1(NC(=O)C(C(=O)O)c2ccc(O)cc2)C(=O)N2C(C(=O)O)=C(CSc3nnnn3C)CO[C@@H]21 (stereo partly drawn) is ____. 1.02
